Biological target: T1, Bdf1 bromodomain 2 (GST-tagged, WT) (Saccharomyces cerevisiae (strain ATCC …, UniProt P35817))
T1 chain: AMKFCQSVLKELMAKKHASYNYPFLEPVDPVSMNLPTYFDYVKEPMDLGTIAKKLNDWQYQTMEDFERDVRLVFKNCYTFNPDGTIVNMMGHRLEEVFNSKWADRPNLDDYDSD
Experiment: histone peptide array probed with recombinant GST-bromodomain, signal normalised to myc peptide control
Non-standard residues stand in square brackets, D forms with d. No end group written: not given here. Arg(Me2a) = CN(C)C(=N)NCCC[C@H](N)C(=O)O; Lys(Me3) = C[N+](C)(C)CCCC[C@H](N)C(=O)O; pT = C[C@@H](OP(=O)(O)O)[C@H](N)C(=O)O; Lys(Me2) = CN(C)CCCC[C@H](N)C(=O)O; pS = N[C@@H](COP(=O)(O)O)C(=O)O
observable: binding score

binder | binding score
ARTKQTARKSTGGKAPRKQ (A Rme2a T Kac Q T A Rme2a Kme2 S T G G K A P R K Q) | 0.0105
PRKQLATKAAR[Lys(Me3)][pS]APATGG [H3 16-35] | 0
ARTKQTA[Arg(Me2a)][Lys(Me2)][pS][pT]GGKAPRKQ | 0
ARTKQTARKSTGGKAPRKQ (A Rme2s T Kac Q T A Rme2s K S T G G K A P R K Q) | 0.00876
ARTKQTARKSTGGKAPRKQ (A R T Kme3 Q T A Rme2a Kme3 S T G G K A P R K Q) | 0

1: [pS]GRGK(Ac)QGGKARAK(Ac)AKSRSS [H2a 1-19]
2: ARTKQTARKSTGGKAPRKQ (A Rme2a T Kme3 Q T A Rme2s Kme2 S T G G K A P R K Q)
INPUT: Quick check, higher binding score between 1 and 2 ? Choose, then provide that item's label.
OUTPUT: 1
